# System: Escherichia coli TOP10
# Experiment Description: shrunken log2 fold change of peptide-encoding DNA abundance (4.5 h post-induction vs induction); higher = less antimicrobial activity (less host growth inhibition)
# Study Conditions: time post-induction: 4.5 h; library: site-saturation at positions 5, 18, 19, 20
Measured Metric: shrunken log2 fold change

Need shrunken log2 fold change of "RRIRLRPPRLPRPRPRPTEVPRP" , thanks. -0.126

Need shrunken log2 fold change of "RRIRWRPPRLPRPRPRPCNPPRP" , thanks. -0.00159

Need shrunken log2 fold change of "RRIRMRPPRLPRPRPRPHDYPRP" , thanks. 1.54

Need shrunken log2 fold change of "RRIRYRPPRLPRPRPRPAQNPRP" , thanks. -0.0465

Need shrunken log2 fold change of "RRIRQRPPRLPRPRPRPLPWPRP" , thanks. 0.117

Need shrunken log2 fold change of "RRIRGRPPRLPRPRPRPGKWPRP" , thanks. 0.566

Need shrunken log2 fold change of "RRIRQRPPRLPRPRPRPLVIPRP" , thanks. -0.682

Need shrunken log2 fold change of "RRIRRRPPRLPRPRPRPVLQPRP" , thanks. 0.0941

Need shrunken log2 fold change of "RRIRPRPPRLPRPRPRPSHNPRP" , thanks. -0.645

Need shrunken log2 fold change of "RRIRVRPPRLPRPRPRPSSWPRP" , thanks. -0.062

Need shrunken log2 fold change of "RRIRRRPPRLPRPRPRPPPTPRP" , thanks. 1.12

Need shrunken log2 fold change of "RRIRKRPPRLPRPRPRPGREPRP" , thanks. 0.913

Need shrunken log2 fold change of "RRIRQRPPRLPRPRPRPFTAPRP" , thanks. -0.183

Need shrunken log2 fold change of "RRIRYRPPRLPRPRPRPGVHPRP" , thanks. -0.452

Need shrunken log2 fold change of "RRIRHRPPRLPRPRPRPRIFPRP" , thanks. -0.121

###

# System: Escherichia coli TOP10;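 further: peptides expressed intracellularly from a pBAD plasmid library in pooled LB shake-flask culture, induced with 0.3% L-arabinose, DNA abundance read by NGS, three biological replicates, DESeq2 with apeglm shrinkage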
# Experiment Description: shrunken log2 fold change of peptide-encoding DNA abundance (4.5 h post-induction vs induction); higher = less antimicrobial activity (less host growth inhibition)
# Study Conditions: time post-induction: 4.5 h; library: site-saturation at positions 5, 18, 19, 20
Measured Metric: shrunken log2 fold change
When you answer, write just the number.

1. RRIRNRPPRLPRPRPRPRHIPRP : -0.0233
2. RRIRFRPPRLPRPRPRPQWVPRP : -0.053
3. RRIRVRPPRLPRPRPRPMPMPRP : 0.0529
4. RRIRARPPRLPRPRPRPRKPPRP : 0.114
5. RRIRCRPPRLPRPRPRPIIDPRP : -0.323
6. RRIRPRPPRLPRPRPRPGDTPRP : -0.0266
7. RRIRARPPRLPRPRPRPTGYPRP : 0.191
8. RRIRCRPPRLPRPRPRPPQHPRP : 0.49

Need shrunken log2 fold change of "RRIRMRPPRLPRPRPRPDWTPRP" , thanks. 0.0113

Need shrunken log2 fold change of "RRIRWRPPRLPRPRPRPNIMPRP" , thanks. -0.296

Need shrunken log2 fold change of "RRIRPRPPRLPRPRPRPPGHPRP" , thanks. 0.371

Need shrunken log2 fold change of "RRIRERPPRLPRPRPRPVVSPRP" , thanks. -0.0681

Need shrunken log2 fold change of "RRIRFRPPRLPRPRPRPMDAPRP" , thanks. 0.111

Need shrunken log2 fold change of "RRIRNRPPRLPRPRPRPSETPRP" , thanks. -0.083

Need shrunken log2 fold change of "RRIRSRPPRLPRPRPRPKFTPRP" , thanks. -0.436

All values here come from the supplement of paper PMC9112550.
